target: human PD-1 on PD-1 Effector Cell Line (Genscript, GS-J2/PD-1) (human, UniProt Q15116 25-288); experiment: cell-based or functional assay
Sequence (Q15116 25-288): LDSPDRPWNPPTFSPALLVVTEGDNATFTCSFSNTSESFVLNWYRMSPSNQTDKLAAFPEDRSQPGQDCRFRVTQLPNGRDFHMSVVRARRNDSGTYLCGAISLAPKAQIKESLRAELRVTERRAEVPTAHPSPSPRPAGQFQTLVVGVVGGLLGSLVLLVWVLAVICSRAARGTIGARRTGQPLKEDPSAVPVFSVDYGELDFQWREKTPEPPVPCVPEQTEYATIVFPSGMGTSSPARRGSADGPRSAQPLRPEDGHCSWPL
assay.metric: Reporter Activation (EC50, nM) human PD-1 cell (NFAT-luc)/human PD-L1 cell

# binder, result.unit, readout.value
measured = [
    ("mouse anti-PD-1 monoclonal antibody C1E2 (antibody, mouse IgG1, kappa, V domains shown, Purified from hybridoma; Constant regions tied only generically to 'mouse antibodies') VH: QVQLQQSGAELVRPGTSVKISCKASGYTFTNYWLGWVKQRPGHGLEWIGDIYPGGGYTNYNENFKGKATLTADTSSSTAYMQLSSLTSEDSAVFFCARGYGTNYWYFDVWGAGTTVTVSS VL: SIVMTQTPKFLLVSAGDRVTITCKASQSVSNDVAWYQQKPGQSPKLLIYYAFHRYTGVPDRFTGSGYGTDFTFTISTVQAEDLAVYFCQQDYSSPYTFGGGTKLEIKR", "nM", 11.1),
    ("mouse anti-PD-1 monoclonal antibody C1A1 (antibody, mouse IgG1, kappa, V domains shown, Purified from hybridoma; Constant regions tied only generically to 'mouse antibodies') VH: QVTLKESGPGILKPSQTLSLTCSFSGFSLSTSGMGVGWIRQPSGKGLEWLAHIWWDDDKFYNPSLKSQLTISKDTSRNQVFLKITSVDTADTATYYCARTGGFITTGYWYFDVWGAGTTVTVSS VL: DIQMTQTTSSLSASLGDRVTISCRASQDISNYLIWYQQKTDGTLKLLIYYTSRLHSGVPSRFSGSGSGTDYSLTISNLEQEDIATYFCQQHKTLPWTFGGGTKLEIKR", "nM", 12.1),
    ("mouse anti-PD-1 monoclonal antibody D1F2 (antibody, mouse IgG1, kappa, V domains shown, Purified from hybridoma; Constant regions tied only generically to 'mouse antibodies') VH: EVMLVESGGGLVKPGGSLKLSCAASGFTFSSYTMSWVRQTPEKRLEWVATISGGGSNIYYPDSVEGRFTVSRDNARNTLYLHMSSLRSEDTALYYCVLNYAYAMDYWGQGTSVTVSS VL: DIQMTQTTSSLSASLGDRVTISCRASQDISNFLNWYQQKPDGTVKLLIYYTSRLQSGVPSRFSGTGSGTDYSLTISNLEQEDLATYFCQQGSSLPWTFGGGTKLEIKR", "nM", 7.35),
]

Numbers sourced from patent US12037395.
